# System: NCI-H522 lung
# experimental-protocol: NCI tumour cell line growth inhibition, 48 h
Below, each entry is listed alongside its reported TGI.

Examples with answers:
O=c1c2cc3ccccc3n2c(=O)c2cc3ccccc3n12	> 100 µM
O=c1c2c3c(sc2nc2n1N=C(c1ccc(Br)cc1)CS2)CCCC3	> 100 µM
Cc1cccc2c1CC(Cc1ccccc1C(=O)O)C2=O (stereo not given)	> 100 µM
COc1ccc(-c2cc(=O)c3c(O)c(OC)c(OC)c(OC)c3o2)cc1	> 100 µM
CCn1c(-c2nonc2N)nc2c(N3CCCC3)nccc21	> 25 µM

[in] Entry under review: O=C(c1ccc([N+](=O)[O-])cc1)N1CCCC1 . Reported TGI?
[out] > 100 µM

[in] // query: CNC(=O)CN(CC(=O)O)C(=O)NC
[out] > 100 µM

[in] // query: COc1ccc(C2C=C(c3ccc(C)cc3)N(c3ccc(OC)cc3[N+](=O)[O-])C3C(=O)OC(=O)C23)c(OC)c1 (stereo not given)
[out] 53.7 µM

[in] // query: COc1cc2cnc3c4cc(OCc5ccccc5)ccc4ccc3c2cc1OC
[out] > 100 µM

[in] // query: CC(=O)/C(=N\Nc1ccc(Cl)cc1)C(C)=Nc1ccc(C)cc1
[out] 66.7 µM
